- Test system: Phakopsora pachyrhizi (the causal agent of Asian soybean rust)
- Assay Protocol: Test A: preventive spray on soybean seedlings, Asian soybean rust, visual disease rating
- Type: in vivo
- Particulars: test suspension 10 ppm; soybean seedlings; 100 = 100% disease control, 0 = no control
Below, each entry is listed alongside its reported Test A disease control rating.
Observation Type: Test A disease control rating (%)

                                   compound                           subject_of_test  numeric_result
0  Nc1ccc2c(cnn2Cc2ccc(-c3noc(C(F)(F)F)n3)cc2)c1  Phakopsora pachyrhizi (the causal agent of Asian soybean rust)              98
1  O=C(NCC(F)(F)F)c1coc(Cc2ccc(-c3noc(C(F)(F)F)n3)cc2)c1  Phakopsora pachyrhizi (the causal agent of Asian soybean rust)             100
2  C=CCOC(=O)c1coc(Cc2ccc(-c3noc(C(F)(F)F)n3)cc2)n1  Phakopsora pachyrhizi (the causal agent of Asian soybean rust)              99
3  CCCOC(=O)c1cnn(C(C)c2ccc(-c3noc(C(F)(F)F)n3)s2)c1 (centres unmarked) [compound 249]  Phakopsora pachyrhizi (the causal agent of Asian soybean rust)             100
4  COCC(COC)NC(=O)c1coc(Cc2ccc(-c3noc(C(F)(F)F)n3)cc2)n1  Phakopsora pachyrhizi (the causal agent of Asian soybean rust)             100
5  CCCOC(=O)c1cnn(Cc2ccc(-c3noc(C(F)(F)F)n3)cc2)c1  Phakopsora pachyrhizi (the causal agent of Asian soybean rust)             100
6  C#CCOC(=O)c1cnn(CCCc2ccc(-c3noc(C(F)(F)F)n3)cc2)c1  Phakopsora pachyrhizi (the causal agent of Asian soybean rust)             100
7  Cc1nn(Cc2ccc(-c3noc(C(F)(F)F)n3)cc2)c2cccc(Br)c12  Phakopsora pachyrhizi (the causal agent of Asian soybean rust)              71
